# Test system: T1, human NPR1 full-length protein overexpressed on CHO-K1 cells (human, UniProt P16066 33-1061)
# T1 sequence: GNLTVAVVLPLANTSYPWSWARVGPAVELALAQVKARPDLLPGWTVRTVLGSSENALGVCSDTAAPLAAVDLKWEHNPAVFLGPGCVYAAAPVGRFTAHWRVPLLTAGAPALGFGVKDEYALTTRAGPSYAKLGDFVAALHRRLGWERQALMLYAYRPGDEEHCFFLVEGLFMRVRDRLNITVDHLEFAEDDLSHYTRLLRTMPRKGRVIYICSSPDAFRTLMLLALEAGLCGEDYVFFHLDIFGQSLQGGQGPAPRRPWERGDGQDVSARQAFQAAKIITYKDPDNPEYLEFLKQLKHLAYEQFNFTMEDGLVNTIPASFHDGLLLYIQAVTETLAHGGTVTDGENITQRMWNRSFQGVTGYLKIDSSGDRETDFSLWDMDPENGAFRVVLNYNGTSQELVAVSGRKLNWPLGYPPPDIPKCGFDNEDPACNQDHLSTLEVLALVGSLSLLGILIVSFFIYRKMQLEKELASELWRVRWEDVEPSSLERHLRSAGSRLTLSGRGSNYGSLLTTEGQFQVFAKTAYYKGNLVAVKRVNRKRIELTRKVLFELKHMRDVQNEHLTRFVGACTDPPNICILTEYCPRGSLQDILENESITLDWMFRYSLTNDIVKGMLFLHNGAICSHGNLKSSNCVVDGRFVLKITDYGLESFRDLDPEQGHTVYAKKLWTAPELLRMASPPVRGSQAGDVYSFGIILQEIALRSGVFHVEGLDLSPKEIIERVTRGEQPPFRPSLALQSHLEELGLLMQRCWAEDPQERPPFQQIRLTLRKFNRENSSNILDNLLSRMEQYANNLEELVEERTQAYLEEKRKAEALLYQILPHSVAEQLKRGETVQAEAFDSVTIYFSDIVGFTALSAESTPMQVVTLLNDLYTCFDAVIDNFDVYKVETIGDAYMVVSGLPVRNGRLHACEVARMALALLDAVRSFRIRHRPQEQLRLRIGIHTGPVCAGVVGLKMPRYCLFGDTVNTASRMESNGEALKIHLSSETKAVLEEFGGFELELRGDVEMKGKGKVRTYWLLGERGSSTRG
# Assay: cell-based or functional assay
Measured quantity: cGMP production: Emax

Exercise: # lookup: cGMP production: Emax of Hu102H3L6 (antibody, human IgG1, kappa, L234A L235A, V domains shown) VH: DVKLVESGEGLVKPGGSLRLSCAASGFTFSTYAMSWVRQAPGKRLEWVAYISRGGDYIYYADTVKGRFTISRDNAKNSLYLQMNSLRAEDTAVYYCTRDQTTVVVHWYFDVWGQGTTVTVSS VL: DIQLTQSPSSLSASVGDRVTITCSASSSINYMHWYQQKPGKSPKRWIYDTSKLASGVPSRFSGSGSGTDYTLTISSLQPEDFATYYCHQRNSYTFGGGTKVEIKR
Solution: 0.61

Exercise: # lookup: cGMP production: Emax of Hu102H4L6 (antibody, human IgG1, kappa, L234A L235A, V domains shown, Humanized, human IgG1 LALA/kappa; also called Hul02H4L6) VH: DVKLVESGEGLVKPGGSLRLSCAASGFTFSSYAMSWVRQAPGKRLEWVAYISRGGDYIYYADSVKGRFTISRDNAKNSLYLQMNSLRAEDSAVYYCTRDQTTVVVHWYFDVWGQGTTVTVSS VL: DIQLTQSPSSLSASVGDRVTITCSASSSINYMHWYQQKPGKSPKRWIYDTSKLASGVPSRFSGSGSGTDYTLTISSLQPEDFATYYCHQRNSYTFGGGTKVEIKR
Solution: 0.65

Exercise: # lookup: cGMP production: Emax of CHI-102 (antibody, human IgG1, kappa, V domains shown) VH: DVKLVESGEGLVKPGGSLKLSCAASGFTFSTYAMSWVRQTPEKRLEWVAYISRGGDYIYYADTVKGRFTISRDNARNTLYLQMSSLKSEDTAMYYCTRDQTTVVVHWYFDVWGTGTTVTVSS VL: QIVLTQSPAIMSASPGEKVTMTCSASSSINYMHWYQQKPGTSPKRWIYDTSKLASGVPARFSGSGSGTSYSLTISSMEAGDAATYYCHQRNSYTFGGGTKLEIKR
Solution: 0.57

Next:
Exercise: # lookup: cGMP production: Emax of Hu102H5L6 (antibody, human IgG1, kappa, L234A L235A, V domains shown) VH: DVKLVESGEGLVKPGGSLRLSCAASGFTFSTYGMSWVRQAPGKRLEWVAYISRGGDYIYYADTVKGRFTISRDNAKNSLYLQMNSLRAEDTAVYYCTRDQTTVVVHWYFDVWGQGTTVTVSS VL: DIQLTQSPSSLSASVGDRVTITCSASSSINYMHWYQQKPGKSPKRWIYDTSKLASGVPSRFSGSGSGTDYTLTISSLQPEDFATYYCHQRNSYTFGGGTKVEIKR
Solution: 0.59
